These measurements were taken from patent US7101878B1.

Target Or Test System: mouse GnRH receptor (Mus musculus, UniProt Q01776)
Construct: expressed in transfected cells; host or cells: 293 cells
Sequence (Q01776 whole entry): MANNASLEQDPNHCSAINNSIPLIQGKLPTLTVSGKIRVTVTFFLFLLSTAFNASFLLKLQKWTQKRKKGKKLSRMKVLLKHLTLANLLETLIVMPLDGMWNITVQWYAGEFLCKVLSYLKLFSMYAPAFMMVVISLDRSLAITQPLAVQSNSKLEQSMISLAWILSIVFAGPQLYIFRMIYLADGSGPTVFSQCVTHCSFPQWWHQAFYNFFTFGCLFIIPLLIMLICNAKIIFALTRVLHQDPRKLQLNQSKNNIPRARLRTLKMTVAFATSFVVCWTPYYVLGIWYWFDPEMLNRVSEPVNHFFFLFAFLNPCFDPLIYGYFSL
Run Description: Radioligand binding, 125I-GnRH-A, 293 cells expressing mouse GnRH receptors
Applied Conditions: 1 h, substrate remaining; 10 uM compound; closer to zero = closer to 100% inhibition; read-out: S%R 10 uM mGnRHR
Mark yes for remaining activity at 10 µM under 30%, no if at or over.

>>> class("Cc1cc2c(cc1Cc1ccc(C(=O)NCCn3c([N+](=O)[O-])cnc3C)o1)C(C)(C)CCC2(C)C [Compound 552]")
"no"
>>> class("COCC(C)NC(=O)c1ccc(Cc2cc3c(cc2C)C(C)(C)CCC3(C)C)o1 (stereo not shown) [Compound 557]")
"yes"
>>> class("Cc1cc2c(cc1Cc1ccc(C(=O)NCCc3ccc([N+](=O)[O-])cc3)o1)C(C)(C)CCC2(C)C [Compound 482]")
"no"
>>> class("COc1cccc(N2CCN(C(=O)c3ccc(Cc4cc5c(cc4C)C(C)(C)CCC5(C)C)o3)CC2)c1 [Compound 553]")
"no"
>>> class("Cc1cc2c(cc1Cc1ccc(C(=O)N(CC#N)Cc3ccccc3)o1)C(C)(C)CCC2(C)C [Compound 559]")
"yes"
>>> class("Cc1cc2c(cc1Cc1ccc(C(=O)N3CCC4(CC3)C(=O)NCN4c3ccccc3)o1)C(C)(C)CCC2(C)C [Compound 649]")
"yes"
>>> class("Cc1cc2c(cc1Cc1ccc(C(=O)NCc3cccc(NC(=O)N(Cc4ccccc4)c4ccccc4)c3)o1)C(C)(C)CCC2(C)C [Compound 511]")
"no"
